Value source: PubChem BioAssay (NCI)

tested on: COLO 205 colon; assay: NCI tumour cell line growth inhibition, 48 h
Consider the following compounds; for each one, report its TGI.

Data request: May I ask what TGI has been recorded for CC1(C)COCN1COC1CCCCC1 ?
Data returned: > 100 µM

Data request: May I ask what TGI has been recorded for O=c1[nH]c2nccnc2c2c([N+](=O)[O-])cccc12 ?
Data returned: > 100 µM

Data request: May I ask what TGI has been recorded for COc1ccc(CNc2nc3cc(N)cc(N)c3nc2-c2ccccc2)cc1OC ?
Data returned: > 48.8 µM

Data request: May I ask what TGI has been recorded for COc1c(C)c2c(c(O)c1C/C=C(\C)CCC(=O)OCCN1CCOCC1)C(=O)OC2 ?
Data returned: > 100 µM

Data request: May I ask what TGI has been recorded for CCSCC(=O)N1CCc2c([nH]c3ccccc23)C1=O ?
Data returned: > 100 µM
